Collected Kcat values appear next to each entry.
# experiment.description: Standard protocol for determination of kcat and KM (continuous spectrophotometric assay, Acetyl CoA hydrolysis at 235 nm)
# Assay type: biochemical
# setup.conditions: purified protein; about 23° C.; 20 mM HEPES pH 6.8, 10% ethylene glycol, 0.2 mM acetyl CoA

# molecule, units.text, Kcat
data = [
    ("SEQ ID NO: 337: GAT polypeptide (protein, 15_6D3, GAT polypeptide) MIEVKPINAEDTYEIRHRILRPNQPLEACKYETDLLGGTFHLGGYYRGKLISIASFHQAEHPELEGQKQYQLRGMATLEEYREQKAGSTLIRHAEELLRKKGADLLWCNARTSASGYYKKLGFSEQGEVYDIPPTGPHILMYKKLT", "s⁻¹", 1.43),
    ("SEQ ID NO: 340: GAT polypeptide (protein, 15F5, GAT polypeptide) MIEVKPINAEDTYEIRHRILRPNQPLEACKYETDLLGGTFHLGGYYRGKLISIASFHKAEHSELEGEEQYQLRGMATLEGYREQKAGSTLIRYAEELLRKKGADLLWCNARTSVSGYYKKLGFSEQGEVYDIPPIGPHILMYKKLT", "s⁻¹", 0.0083),
    ("SEQ ID NO: 298: GAT polypeptide (protein, 1_2H6, GAT polypeptide) MIEVKPINAEDTYEIRHRILRPNQPLEACMYETDLLGGAFHLGGYYRGKLISIASFHQAEHSELEGQKQYQLRGMATLEGYREQKAGSTLIRHAEELLRKKGADLLWCNARTSASGYYKKLGFSEQGGVYDIPPIGPHILMYKKLT", "s⁻¹", 0.155),
    ("SEQ ID NO: 470: GAT polypeptide (protein, 1_2B6, GAT polypeptide) MIEVKPINAEETYELRHKILRPNQPLEACMYETDLLRGSFHLGGFYRGKLISIASFHQAEHSELEGQKQYQLRGMATLEGFRDQKAGSSLIKHAEEILRKRGADLLWCNARTSASGYYKKLGFSEQGEIFETPPVGPHILMYKRLT", "s⁻¹", 2.3),
    ("SEQ ID NO: 397: GAT polypeptide (protein, 6_22D9, GAT polypeptide) MIEVKPINAEDTYEIRHRILRPNQPLEACMYETDLLEGTFHLGGYYRGKLISIASFHQAEHSELEGQKQYQLRGMATLEGYREQKAGSTLIRHAEELLRKKGADLLWCNARTSASGYYKKLGFSEQGEVYDIPPVGPHILMYKKLT", "s⁻¹", 0.732),
    ("SEQ ID NO: 311: GAT polypeptide (protein, 14_12H6, GAT polypeptide) MIEVKPINAEDTYEIRHRILRPNQPLEACKYETDLLGGAFHLGGYYRGKLISIASFHQAEHPELEGQKQYQLRGMATLEEYREQKAGSTLIRHAEELLRKKGADLLWCNARTSASGYYKKLGFSEQGEVYDIPPTGPHILMYKKLT", "s⁻¹", 1.52),
]
